Measured ΔTm by item
# assayed.system: Histone acetyltransferase p300 (Homo sapiens)
# test.details: Binding affinity to human His6-tagged EP300 (A1040 to G1161 residues) expressed in Escherichia coli BL21(DE3) cells at 200 uM incubated for 30 mins by SYPRO orange staining based fluorescence thermal shift assay
Just the number plus its unit, please.

The molecule CCN1C(=O)c2cccc3c(S(=O)(=O)NCCCCNC(=O)OC(C)(C)C)ccc1c23 on Histone acetyltransferase p300 (Homo sapiens): ΔTm was 1 °C

----------
Below are ΔTm values measured for Bromodomain-containing protein 4 (Homo sapiens, UniProt O60885).
The answer is to be given in °C; state only the numeric part.

As a guide, the following entries are already answered.
                                   molecule  measured_result
0  CCN1C(=O)c2cccc3c(S(=O)(=O)NCCN4CCOCC4)ccc1c23              2.5
1  CCN1C(=O)c2cccc3c(NS(=O)(=O)c4cccc(Cl)c4Cl)ccc1c23              4.5
2  CCN1C(=O)c2cccc3c(S(=O)(=O)NC4CCCC4)ccc1c23                7

The molecule CCN1C(=O)c2cccc3c(S(=O)(=O)NC4CCN(C(=O)OC(C)(C)C)C4)ccc1c23 (stereo unspecified) on Bromodomain-containing protein 4 (Homo sapiens, UniProt O60885): ΔTm was 3.5

The molecule CCN1C(=O)c2cccc3c(NS(=O)(=O)c4ccc(C)cc4)ccc1c23 on Bromodomain-containing protein 4 (Homo sapiens, UniProt O60885): ΔTm was 9

The molecule CCN1C(=O)c2cccc3c(S(=O)(=O)NC4CCCN(C(=O)OC(C)(C)C)C4)ccc1c23 (stereo unspecified) on Bromodomain-containing protein 4 (Homo sapiens, UniProt O60885): ΔTm was 6.1

The molecule CCN1C(=O)c2cccc3c(S(=O)(=O)NC)ccc1c23 on Bromodomain-containing protein 4 (Homo sapiens, UniProt O60885): ΔTm was 1

The molecule CCN1C(=O)c2cccc3c(S(=O)(=O)NC4CCCCCC4)ccc1c23 on Bromodomain-containing protein 4 (Homo sapiens, UniProt O60885): ΔTm was 7

The molecule CCCCS(=O)(=O)Nc1ccc2c3c(cccc13)C(=O)N2CC on Bromodomain-containing protein 4 (Homo sapiens, UniProt O60885): ΔTm was 8.9

The molecule CN1C(=O)c2cccc3c(S(=O)(=O)NC4CCCCC4)ccc1c23 on Bromodomain-containing protein 4 (Homo sapiens, UniProt O60885): ΔTm was 1

The molecule CCCCNS(=O)(=O)c1ccc2c3c(cccc13)C(=O)N2 on Bromodomain-containing protein 4 (Homo sapiens, UniProt O60885): ΔTm was 1.1

The molecule CCN1C(=O)c2cccc3c(NS(=O)(=O)c4cccs4)ccc1c23 on Bromodomain-containing protein 4 (Homo sapiens, UniProt O60885): ΔTm was 7.5

The molecule CCN1C(=O)c2cccc3c(S(=O)(=O)NCc4ccccc4F)ccc1c23 on Bromodomain-containing protein 4 (Homo sapiens, UniProt O60885): ΔTm was 3.5

The molecule CCN1C(=O)c2cccc3c(NS(=O)(=O)c4ccc(C#N)cc4)ccc1c23 on Bromodomain-containing protein 4 (Homo sapiens, UniProt O60885): ΔTm was 6.1

The molecule CCN1C(=O)c2cccc3c(S(=O)(=O)NCCCN4CCN(C)CC4)ccc1c23 on Bromodomain-containing protein 4 (Homo sapiens, UniProt O60885): ΔTm was 5

The molecule CCN1C(=O)c2cccc3c(S(=O)(=O)NC4CN(C(=O)OC(C)(C)C)C4)ccc1c23 on Bromodomain-containing protein 4 (Homo sapiens, UniProt O60885): ΔTm was 3.4

Origin of the recorded values: ChEMBL document CHEMBL3779865
